# inhibition at 25 µM annotations
# tested on: GAβ-dependent amyloid fibril formation (Human Aβ1-40 + GM1-containing liposome) (Homo sapiens, UniProt P05067)
# Construct: Human Aβ1-40 (cat. #4307-v, prepared by Peptide Institute); purchased Peptide Institute 4307-v
# Sequence (P05067 672-711 limits assumed): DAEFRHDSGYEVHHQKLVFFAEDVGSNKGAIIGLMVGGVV
# assay details: Thioflavin T (ThT) assay of GAβ-dependent amyloid fibril formation (Aβ1-40 with GM1-containing liposome)
# Type: biochemical
# particulars: inhibition rate against amyloid fibril formation, final concentration of the compound 25 μM; read-out: Inhibitory activity ABC evaluation

# count of solved cases: 3
CN(C(=O)CCc1nc(-c2ccc(OC(F)(F)F)cc2)no1)c1cccc(Cl)c1 40 to 80%
O=C(N[C@@H](CO)c1noc(-c2ccc(OC(F)(F)F)cc2)n1)c1ccc(Cl)cc1 40 to 80%
O=C(N[C@@H](CO)c1nc(-c2cc3ccccc3s2)no1)c1ccc(F)cc1 > 80%

Now consider a different molecule.
I'd like to know its inhibition at 25 µM. The molecule in question is COc1ccc(-c2noc([C@H](CO)NC(=O)c3ccccc3)n2)cc1F
> 80%

----------
# tested on: GAβ-dependent amyloid fibril formation (Human Aβ1-40 + GM1-containing liposome) (Homo sapiens, UniProt P05067)
# Construct: Human Aβ1-40 (cat. #4307-v, prepared by Peptide Institute); purchased Peptide Institute 4307-v
# assay details: Thioflavin T (ThT) assay of GAβ-dependent amyloid fibril formation (Aβ1-40 with GM1-containing liposome)
# Assay type: biochemical
# particulars: inhibition rate against amyloid fibril formation, final concentration of the compound 25 μM; read-out: Inhibitory activity ABC evaluation
# inhibition at 25 µM annotations

compound	inhibition at 25 µM
O=C(/C=C/c1ccc(F)cc1)N[C@@H](CO)c1nc(-c2ccc(C(F)(F)F)cc2)no1 [Compound 208]	40 to 80%
COc1ccc(-c2noc([C@@H](NC(=O)c3ccc(Cl)cc3)[C@@H](C)O)n2)cc1 [Compound 132]	> 80%

I'd like to know its inhibition at 25 µM. The compound in question is O=C(N[C@@H](CO)c1nc(-c2ccc(C(F)(F)F)cc2)no1)c1ccc(Cl)cn1 [Compound 239]
40 to 80%

I'd like to know its inhibition at 25 µM. The compound in question is COc1ccc(-c2noc(CCC(=O)N(CCCO)c3cccc(Cl)c3)n2)cc1 [Compound 6]
40 to 80%

I'd like to know its inhibition at 25 µM. The compound in question is N[C@@H](Cc1c[nH]c2ccccc12)c1nc(-c2ccc(OC(F)(F)F)cc2)no1 [Compound 25]
> 80%

I'd like to know its inhibition at 25 µM. The compound in question is COc1ccc(-c2noc(C(C)(C)N(C)C(=O)c3ccc(Cl)cc3)n2)cc1 [Compound 22]
< 40%

I'd like to know its inhibition at 25 µM. The compound in question is O=C(N[C@@H](CO)c1nc(-c2ccc3[nH]cc(F)c3c2)no1)c1ccc(F)cc1 [Compound 194]
40 to 80%

I'd like to know its inhibition at 25 µM. The compound in question is COc1ccc2nc(-c3noc([C@H](CO)NC(=O)c4ccc(F)cc4)n3)sc2c1 [Compound 235]
40 to 80%

----------
# tested on: GAβ-dependent amyloid fibril formation (Human Aβ1-40 + GM1-containing liposome) (Homo sapiens)
# Construct: Human Aβ1-40 (cat. #4307-v, prepared by Peptide Institute); purchased Peptide Institute 4307-v
# assay details: Thioflavin T (ThT) assay of GAβ-dependent amyloid fibril formation (Aβ1-40 with GM1-containing liposome)
# Format: biochemical
# particulars: inhibition rate against amyloid fibril formation, final concentration of the compound 25 μM; read-out: Inhibitory activity ABC evaluation
# Method: <3. Evaluation of the Compounds Based on the Inhibitory Activity Against Amyloid Fibril Formation in Thioflabin T (ThT) Assay> Inhibitory activity against GAβ-dependent amyloid fibril formation of the above compounds 1 to 133 and 142 to 267 were evaluated in ThT assay. (1) Preparation of Aβ Solution […] The fluorescence intensity of ThT indicates the degree of amyloid fibrils formation. […]
Counter-ions that a name gives are not always drawn.
# inhibition at 25 µM annotations

compound	inhibition at 25 µM
O=C(N[C@@H](CO)c1nc(-c2ccc(-c3ccccc3)s2)no1)c1ccc(F)cc1	40 to 80%

I'd like to know its inhibition at 25 µM. The compound in question is O=C(N[C@@H](CO)c1nc(-c2ccc(C(F)(F)F)cc2)no1)c1ccc(OC(F)(F)F)cc1
> 80%

I'd like to know its inhibition at 25 µM. The compound in question is NC(=O)C[C@H](NC(=O)c1ccc(Cl)cc1)c1nc(-c2ccc(OC(F)(F)F)cc2)no1
< 40%

I'd like to know its inhibition at 25 µM. The compound in question is O=C(NC(CNCCO)c1nnc(-c2ccc(OC(F)(F)F)cc2)o1)c1ccc(Cl)cc1 (centres unmarked)
40 to 80%

I'd like to know its inhibition at 25 µM. The compound in question is N[C@@H](Cc1c[nH]c2ccccc12)c1nnc(-c2ccc(OC(F)(F)F)cc2)o1 [Compound 110, hydrochloride]
40 to 80%

I'd like to know its inhibition at 25 µM. The compound in question is CN(C)c1ccc(-c2noc([C@H](CO)NC(=O)c3ccccc3)n2)cc1
> 80%

I'd like to know its inhibition at 25 µM. The compound in question is O=C(N[C@@H](CO)c1nc(-c2ccc(OC(F)(F)F)cc2)no1)c1cccc(F)c1
> 80%

I'd like to know its inhibition at 25 µM. The compound in question is O=C(N[C@H](CO)c1nc(-c2ccc(C(F)(F)F)cc2)no1)c1ccc(Cl)cc1
40 to 80%
